system: VchCAST RNA-guided transposition machinery (E. coli BL21(DE3) host, lacZ target); assay: relative integration efficiency (T-LR orientation) vs wild-type transposon end (log2 (normalized fold change)); transposon end mutated: right end (5 bp flank + 75 bp right end); higher = more efficient transposition
Given measured relative integration efficiency (log2), output 1.0 if it is greater than or equal to 0.2 and 0.0 if not.

Use the examples below as a reference point.
Reported relative integration efficiency (log2) reaches at least 0.2 for ACATTTGTTGATACAACCATATATTGATATCTCCACCCATAAATTGATAATTATCACACCCATAAATTGATATTGCCTCTGATCATAGTCAGACCAACATTGCTACGACCCGTATTCGCACCGACAC ?
0.0

Does the reported relative integration efficiency (log2) for ACATTTGTTGATACAACCATAAAATGATACGTACACCCATAAATTGATAATTATCACACCCATAAATTGATATTGCCTCTGATCATAGTCAGACCAACATTGCTACGACCCGTATTCGCACCGACAC fall at or above the 0.2 mark?
0.0

Evaluate ACATTTGTCGATACAACCATAAAACGATAATTACACCCATAAATGGATAATTATCACACCCAATTTAACTATAACGCTCTGATCATAGTCAGACCAACATTGCTACGACCCGTATTCGCACCGACAC : relative integration efficiency (log2) at minimum 0.2?
1.0

Does relative integration efficiency (log2) meet or surpass 0.2 for ACATTTGTTGATACAACCATAAAATGATAATTAATAATTCACCCATAAATTGATAATTATCACACCCATAAATTGATATTGCCTCTGATCATAGTCAGACCAACATTGCTACGACCCGTATTCGCAC ?
1.0

Answer whether relative integration efficiency (log2) of ACATTTGTTGATACAACCATAAAATGATAATTACACCCATAAATGGATCATTATCACCCCCAATTTAACTATAACGCTCTGATCATAGTCAGACCAACATTGCTACGACCCGTATTCGCACCGACAC is greater than or equal to 0.2.
1.0

Could you verify whether the entry ACATTTGTTGATACAACCATAAAATGATAATTACACCCATAAATTGATAATTATCACACCACGCCCGGTCGCGGTAAGAGGATCATAGTCAGACCAACATTGCTACGACCCGTATTCGCACCGACAC shows relative integration efficiency (log2) of no less than 0.2?
1.0

Confirm if relative integration efficiency (log2) reported for the sequence ACATTTGTTGATACAAGGTAAAAATGATAATTACACCCATAAATTGATAATTATCACACCCATAAATTGATATTGCCTCTGATCATAGTCAGACCAACATTGCTACGACCCGTATTCGCACCGACAC is 0.2 or above.
0.0

Does relative integration efficiency (log2) meet or surpass 0.2 for ACATTTGTTGATACAACCATAAAATGATAATTACACCCATAAATTGATAATTATCACACCCATAAATTGATATTGCAGAGGATCATAGTCAGACCAACATTGCTACGACCCGTATTCGCACCGACAC ?
0.0

More entries:
Is relative integration efficiency (log2) for ACATTTGTTGATACAACCATAAAATGATTTAAACACCCATAAATTGATAATTATCACACCCATAAATTGATATTGCCTCTGATCATAGTCAGACCAACATTGCTACGACCCGTATTCGCACCGACAC at or above 0.2?
0.0

Hi, just wondering whether ACATTTGTTGATACAACCATAAAATGATAATTACACCCATAAATTGATATAATTCACACCCATAAATTGATATTGCCTCTGATCATAGTCAGACCAACATTGCTACGACCCGTATTCGCACCGACAC shows relative integration efficiency (log2) of 0.2 or higher.
0.0
